# Test system: Saccharomyces cerevisiae
# Measurement notes: protein stability index of tFT-peptide fusion (C-terminal peptide) (PSI (0-1 scale)); higher = more stable (slower turnover)
# Study conditions: genetic background: das1 deletion; temperature: 30 C
Reported protein stability index maps to class as: low range = under 0.3, mid range = from 0.3 up to 0.6, high range = 0.6 and over

Challenge: Determine which band this sequence sits in: SFFSQAIPILAA
Response given: low range

Challenge: Determine which band this sequence sits in: FERVEYEVLGIG
Response given: mid range

Challenge: Determine which band this sequence sits in: CEERVKSRLKQN
Response given: high range

Challenge: Determine which band this sequence sits in: YTQKFTFYGLPA
Response given: high range

Challenge: Determine which band this sequence sits in: LPLSPPPLPSSR
Response given: high range

Challenge: Determine which band this sequence sits in: YVSLPFVVWWFC
Response given: mid range

Challenge: Determine which band this sequence sits in: ASLSSSRPPLLP
Response given: high range

Challenge: Determine which band this sequence sits in: APPPLFLIVLHL
Response given: mid range

Challenge: Determine which band this sequence sits in: CYRRCQAFLVLV
Response given: mid range

Challenge: Determine which band this sequence sits in: TTATLSFAICAV
Response given: mid range

Challenge: Determine which band this sequence sits in: PVLPPPLLLCPC
Response given: low range

Challenge: Determine which band this sequence sits in: GVAILFTFFRLL
Response given: mid range

Challenge: Determine which band this sequence sits in: RISGSIVVRKRS
Response given: high range

Challenge: Determine which band this sequence sits in: WLLSFLRFLVLR
Response given: mid range

Challenge: Determine which band this sequence sits in: GWVVVVCGVCCG
Response given: low range

Challenge: Determine which band this sequence sits in: PRQPSKSNASNR
Response given: high range

Challenge: Determine which band this sequence sits in: KMKGLINKRKES
Response given: high range

Challenge: Determine which band this sequence sits in: WSLPPLLSPLYF
Response given: high range

Challenge: Determine which band this sequence sits in: GVLIFLSFQPIA
Response given: mid range

Challenge: Determine which band this sequence sits in: NGLVCVFILSWY
Response given: low range

Challenge: Determine which band this sequence sits in: PSPFHSFYLRLI
Response given: mid range

----------
Below, each of the sequences is paired with its reported protein stability index value.
# Test system: Saccharomyces cerevisiae
# Measurement notes: protein stability index of tFT-peptide fusion (C-terminal peptide) (PSI (0-1 scale)); higher = more stable (slower turnover)
# Study conditions: genetic background: wild type; temperature: 30 C
Give the value as a plain number.

The following sequences have reported results that may help.
GENPEPRHGRGN; 0.698
TILLNWSQVHME; 0.7
GFTAERWRVKGR; 0.674

Challenge: Write down the reported protein stability index of PPFVPGEVRRTV , test system: Saccharomyces cerevisiae.
Response given: 0.687

Challenge: Write down the reported protein stability index of LRERKVYLVKIK , test system: Saccharomyces cerevisiae.
Response given: 0.575

----------
# System: Saccharomyces cerevisiae
# Measurement notes: protein stability index of tFT-peptide fusion (C-terminal peptide) (PSI (0-1 scale)); higher = more stable (slower turnover)
# Study conditions: genetic background: das1 deletion; temperature: 30 C
Value type: protein stability index
Give the value as a plain number.

The following sequences have reported results that may help.
SMPLYKDVQKDA [RBK1 C-terminal 12 aa]; 0.717
EKTRKNISKFFS [CPR7 C-terminal 12 aa]; 0.713
IHNDIPSHRKLK [FIR1 C-terminal 12 aa]; 0.699
GLFPSNYVSLGN [ABP1 C-terminal 12 aa]; 0.689
SISVLFDSLAAL [PRS1 C-terminal 12 aa]; 0.714

Challenge: Write down the reported protein stability index of TDNGSVLPLNPS [BAS1 C-terminal 12 aa] , test system: Saccharomyces cerevisiae.
Response given: 0.696

Challenge: Write down the reported protein stability index of NGINNSSATYKI [ULA1 C-terminal 12 aa] , test system: Saccharomyces cerevisiae.
Response given: 0.703

Challenge: Write down the reported protein stability index of TVPGDENKITKK [PDR12 C-terminal 12 aa] , test system: Saccharomyces cerevisiae.
Response given: 0.711

Challenge: Write down the reported protein stability index of LLHTVMNENKLP [LST7 C-terminal 12 aa] , test system: Saccharomyces cerevisiae.
Response given: 0.716

Challenge: Write down the reported protein stability index of RHSMSEEELEMY [KTR4 C-terminal 12 aa] , test system: Saccharomyces cerevisiae.
Response given: 0.689
